Values compiled from patent US9850283B2.

- assayed_target: LK35.2-hPD-L1 cells / PE-labeled PD-1-Ig (Homo sapiens)
- Construct: expressed in transfected cells; host or cells: LK35.2 mouse B cell line
- Sequence (Q9NZQ7 19-290): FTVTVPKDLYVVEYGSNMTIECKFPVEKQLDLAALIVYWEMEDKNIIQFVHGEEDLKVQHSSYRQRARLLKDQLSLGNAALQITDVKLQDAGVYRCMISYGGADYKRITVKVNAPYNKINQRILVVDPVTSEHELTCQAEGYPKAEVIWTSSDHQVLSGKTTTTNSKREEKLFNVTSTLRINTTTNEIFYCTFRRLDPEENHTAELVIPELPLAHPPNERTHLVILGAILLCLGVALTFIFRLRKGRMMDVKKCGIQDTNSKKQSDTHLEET
- assay_method_text: LK35.2-hPD-L1 cell binding high-content screening assay
- Assay type: cell-based
- stated_conditions: cluster symbol; cell line of CBA not given (LK35.2-hPD-L1 or 293T-hPD-L1); read-out: CBA IC50 cluster
Positions of bridges follow the written chain, without caps; N, C: chain ends. Non-standard residues stand in square brackets, D forms with d. Residues, ends and D or L forms follow the SMILES beside them. ξ: configuration not given here. Hyp = O=C(O)[C@@H]1C[C@@H](O)CN1; dNMeNle = CCCC[C@@H](NC)C(=O)O; NMeNle = CCCC[C@H](NC)C(=O)O; NMeA = CN[C@@H](C)C(=O)O; Orn = NCCC[C@H](N)C(=O)O; dDap = NC[C@@H](N)C(=O)O; Dab = NCC[C@H](N)C(=O)O; ξP = O=C(O)C1CCCN1
# key: entry, value: IC50

compound	IC50
CCCC[C@H]1C(=O)N(C)[C@@H](CCCC)C(=O)N[C@@H](CCCNC(=N)N)C(=O)N[C@H](C(=O)NCC(N)=O)CSCC(=O)N[C@@H](Cc2ccc(O)cc2)C(=O)N(C)[C@@H](C)C(=O)N[C@@H](CC(N)=O)C(=O)N2CCC[C@H]2C(=O)N[C@@H](Cc2cnc[nH]2)C(=O)N[C@@H](CC(C)C)C(=O)N2CC(F)(F)C[C@H]2C(=O)N[C@@H](Cc2c[nH]c3ccccc23)C(=O)N[C@@H](CO)C(=O)N[C@@H](Cc2c[nH]c3ccccc23)C(=O)N1C	0.158 to 4.71 nM
CCCC[C@H]1C(=O)N(C)[C@@H](CCCC)C(=O)N[C@@H](C)C(=O)N[C@H](C(=O)NCC(N)=O)CSCC(=O)N[C@@H](Cc2ccc(O)cc2)C(=O)N(C)[C@@H](C)C(=O)N[C@@H](CC(=O)O)C(=O)N2CCC[C@H]2C(=O)N[C@@H](Cc2cnc[nH]2)C(=O)N[C@@H](CC(C)C)C(=O)N2C[C@H](O)C[C@H]2C(=O)N[C@@H](Cc2c[nH]c3ccccc23)C(=O)N[C@@H](CO)C(=O)N[C@@H](Cc2c[nH]c3ccccc23)C(=O)N1C	0.158 to 4.71 nM
CCCC[C@@H]1C(=O)N(C)[C@H](CCCC)C(=O)N[C@@H](C)C(=O)N[C@@H](C(=O)NCC(N)=O)CSCC(=O)N[C@@H](Cc2ccc(O)cc2)C(=O)N2CCCC2C(=O)N[C@H](CC(=O)O)C(=O)N2CCC[C@H]2C(=O)N[C@H](CN)C(=O)N[C@@H](CCC(N)=O)C(=O)N2CCCC2C(=O)N[C@H](Cc2c[nH]c3ccccc23)C(=O)N[C@@H](CCN)C(=O)N[C@@H](Cc2c[nH]c3ccccc23)C(=O)N1C (stereo partly shown) [Example 1208] ({CH2CO}-Y[ξP][dD]P[dDap]Q[ξP][dW][Dab]W[dNMeNle][dNMeNle]A[dC]G-NH2; thioether N-14)	4.78 to 72.9 nM
CCCC[C@H]1C(=O)N(C)[C@@H](CCCC)C(=O)N[C@@H](C)C(=O)N[C@H](C(=O)NCC(N)=O)CSCC(=O)N[C@@H](Cc2ccc(O)cc2)C(=O)N(C)[C@@H](C)C(=O)N[C@@H](CCC(=O)O)C(=O)N2CCC[C@H]2C(=O)N[C@@H](Cc2cnc[nH]2)C(=O)N[C@@H](CCCN)C(=O)N2C[C@H](O)C[C@H]2C(=O)N[C@@H](Cc2c[nH]c3ccccc23)C(=O)N[C@@H](CO)C(=O)N[C@@H](Cc2c[nH]c3ccccc23)C(=O)N1C [Example 1178] ({CH2CO}-Y[NMeA]EPH[Orn][Hyp]WSW[NMeNle][NMeNle]ACG-NH2; thioether N-14)	4.78 to 72.9 nM
